# experimentalDetails: NCI Yeast Anticancer Drug Screen. Data for the bub3 strain (AID 167)
# testContext: S. cerevisiae bub3 mutant strain, at 1.2 µM, hits give high values
About 79,000 compounds went through this panel and 15% of them were active in at least one assay; those are over-represented in the sample as a whole.

compound: CC/C(=C(\c1ccccc1)c1ccc(OCCN(C)C)cc1)c1ccccc1
endpointUnit: %
growth inhibition: 5
--
compound: CCCCCCCCC/C=C/C=C/C(=O)NCC(=O)NC1C(O)C(O)C(Nc2ncnc3nc[nH]c23)OC1C(O)CO (stereo not drawn)
endpointUnit: %
growth inhibition: -64
--
compound: COc1ccc(OC)c2cc3ccccc3cc12
endpointUnit: %
growth inhibition: 22

====

# experimentalDetails: NCI Yeast Anticancer Drug Screen. Data for the rad14 strain (AID 159);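 further: 0% = growth of vehicle-treated control cultures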
# testContext: S. cerevisiae rad14 strain growth inhibition; at 100.0 µM; hits give high values
About 79,000 compounds went through this panel and 15% of them were active in at least one assay; those are over-represented in the sample as a whole.
Give Criterion met when the value for growth inhibition is at least 90%. Give Criterion not met when it is less.

compound: CC(=O)OCc1ccc(O)c(C=O)c1
classification: Criterion not met
--
compound: O=Nc1c(NO)ccc2nn(-c3ccccc3)nc12
classification: Criterion met
--
compound: CC(C)C1=CCC2C(=C1)CCC1C(C)(C(=O)O)CCCC21C (configuration not stated) (tested in a mixture with another compound)
classification: Criterion met
--
compound: O=C1Nc2ccccc2/C1=C/COc1ccccc1
classification: Criterion met

====

# experimentalDetails: NCI Yeast Anticancer Drug Screen. Data for the mec2-1 strain (AID 157)
# testContext: S. cerevisiae mec2-1 strain, at 100.0 µM, hits give high values
About 79,000 compounds went through this panel and 15% of them were active in at least one assay; those are over-represented in the sample as a whole. Calls of active or inactive are those of the source. Rule as the data show it: active = growth inhibition above about 70%; inactive = the rest.

compound: COc1cc(C2c3cc4c(cc3OC(NNc3ccccc3)C2C)OCO4)cc(OC)c1OC (centres undefined)
growth inhibition: 91% (active)
//
compound: CCOC(=O)C1=C(C(=O)c2ccccc2)C(c2ccccc2[N+](=O)[O-])C(C(=O)c2ccccc2)=C(C(=O)OCC)N1
growth inhibition: 10% (inactive)
//
compound: COc1ccccc1/C=C1\Sc2scc(-c3cccc([N+](=O)[O-])c3)[n+]2C1=O
growth inhibition: 90% (active)
//
compound: COC(=O)C1=C(C)NC(C)=C(C(=O)OCCCN2CCC(c3ccccc3)(c3ccccc3)CC2)C1c1cccc([N+](=O)[O-])c1 (centres undefined)
growth inhibition: 92% (active)

====

Listed molecules paired with reported growth inhibition
# experimentalDetails: NCI Yeast Anticancer Drug Screen. Data for the mlh1 rad18 strain (AID 175)
# testContext: S. cerevisiae mlh1 rad18 strain growth inhibition; at 50.0 µM (retest, dose inferred, filed as 5.0); hits give high values
# Experimental: Growth inhibition of yeast strains with defined genetic alterations is measured as a screen for potential anti-cancer activity. Selected strains with alterations in DNA damage repair or cell cycle control were exposed to compounds and growth inhibition was measured relative to vehicle treated controls. The strain used in this assay is mlh1 rad18
The panel holds about 79,000 compounds, 15% with a hit somewhere; the sample as a whole holds those more often. Active and inactive are the calls of the source. Cut-off read from the data, not from the text of the source: active = growth inhibition above about 70%; inactive = the rest.
endpointName: growth inhibition

molecule: CC(=O)Oc1ccc2c(c1)Cc1cc(N=C3C=CC(=O)O3)ccc1-2
value: 99% (active)
--
molecule: CC(C)/C(Cl)=N\OC(=O)Nc1cccc(Cl)c1
value: 22% (inactive)
--
molecule: CC(/C=C/c1ccc(Cl)cc1)=N\NC(=S)NCC(C)C
value: 64% (inactive)
--
molecule: CCCCCCCCCC/C=C\C(=O)O
value: 69% (inactive)
--
molecule: Clc1ccc(SC(/C=C/NNC2=NC(c3ccccc3)C(c3ccccc3)=NN2)c2ccccc2)cc1 (stereo not given)
value: 0% (inactive)
--
molecule: c1ccc(-c2nc3cccnc3s2)cc1
value: 1% (inactive)
--
molecule: COC(=O)CSSCc1ccc([N+](=O)[O-])cc1
value: 98% (active)
--
molecule: N#Cc1c(N)[nH]c2ccc(Sc3ccccc3)cc12
value: 85% (active)
--
molecule: COc1cc2c(c(OC)c1OC)-c1c(cc3c(c1OC)OCO3)CC(C)C(C)(O)C2OC(=O)c1ccccc1 (stereo not given)
value: 47% (inactive)
--
molecule: Cn1c2ccccc2c(=O)c2cc(NC(=O)CCCCC(=O)Nc3ccc4c(c3)c(=O)c3ccccc3n4C)ccc21
value: 9% (inactive)
--
molecule: S=C(N/N=C(/c1ccccc1)c1ccccn1)N1CCCCCC1
value: 97% (active)
--
molecule: O=CNc1ccc2c(c1)C(=O)c1ccccc1-2
value: 61% (inactive)
--
molecule: CCCCCCCCCCCCCCCCCCOCC(O)COP(=O)(O)OCC1OC(n2cc(F)c(=O)[nH]c2=O)CC1O (stereo not given)
value: 99% (active)
--
molecule: O=C(NCCCCNCCCNC(=O)c1cc(-c2ccccc2)nc2ccccc12)c1cc(-c2ccccc2)nc2ccccc12
value: 92% (active)
--
molecule: c1ccc2c(c1)c1ncccc1c1nccnc21
value: -73% (inactive)
--
molecule: CCC(C)COC(=O)c1ccc(N=Cc2ccc(C=Nc3ccc(C(=O)OCC(C)CC)cc3)cc2)cc1 (stereo not given)
value: 50% (inactive)
--
molecule: Cc1c(C(Cc2ccccc2N(C)C(=O)/C=C\C(=O)O)c2c[nH]c3ccccc23)c2ccccc2n1C (stereo not given)
value: -9% (inactive)
--
molecule: COc1ccc(/C=C/C(=O)C(C)(C)Br)cc1
value: 99% (active)
--
molecule: COc1ccc(OC)c2cc3ccccc3cc12
value: 81% (active)
--
molecule: CC[C@@]1(O)C(=O)OCc2c1cc1n(c2=O)Cc2cc3c(CN(C)C)c(O)ccc3nc2-1
value: 3% (inactive)
--
molecule: O=C1c2ccccc2-c2nc3ccccc3nc21
value: 99% (active)
--
molecule: CC(=O)Nc1ccc2c(c1)C(=Nc1ccc(C(=O)O)cc1)c1ccccc1-2
value: 73% (active)
--
molecule: CSc1nc(=S)[nH]c2c1c(C)nn2-c1ccccc1
value: 84% (active)
--
molecule: Cc1ccc(S(=O)(=O)NNC(=S)Nc2cccc3ccccc23)cc1
value: 29% (inactive)
--
molecule: S=C(N/N=C/c1ccccn1)Nc1ccc(Cl)cc1
value: 95% (active)
--
molecule: CCCCCCCCCCCCCCC(C(=O)[O-])[n+]1ccccc1 (stereo not given)
value: 51% (inactive)
--
molecule: BrCc1cccc2ccc3cccc(CBr)c3c12
value: 96% (active)
--
molecule: C[C@@H]1C[C@H]2[C@@H]3CCC4=CC(=O)C=C[C@]4(C)[C@@]3(Cl)[C@@H](Cl)C[C@]2(C)[C@@]1(O)C(=O)COP(=O)(O)O
value: 1% (inactive)
--
molecule: O=C(c1ccc(Cl)cc1)C1OC12C(=O)Nc1ccccc12 (stereo not given)
value: 100% (active)
--
molecule: COC(=O)C1=C(C(=O)OC)C2(C)C=CC1O2 (stereo not given)
value: 48% (inactive)
--
molecule: O=C(NNc1ccnc2cc(Cl)ccc12)/C(=C\c1ccccc1Cl)NC(=O)c1ccccc1
value: 7% (inactive)
--
molecule: NC1=NS(=O)(=O)N=C(N)C1=Cc1ccc([N+](=O)[O-])o1
value: 84% (active)
--
molecule: Fc1ccc(NC(=S)SCc2ccc3c(c2)OCO3)cc1F
value: 98% (active)
--
molecule: Cc1cc(CO)c(O)c(CNCc2cc(C)cc(CO)c2O)c1
value: 96% (active)
--
molecule: c1ccc2c(c1)-c1nc3ccccc3cc1C2N1CCOCC1 (stereo not given)
value: 47% (inactive)
--
molecule: CNC(=O)OCc1c(COC(=O)NC)c(-c2ccc(-c3ccccc3)cc2)n(C)c1C
value: 75% (active)
--
molecule: Cc1ccc2[nH]c3c(C)c4cc[n+](C)cc4c(C)c3c2c1
value: 72% (active)
--
molecule: O=[N+]([O-])c1cccc2nc3ccccc3c(NCCCN3CCOCC3)c12
value: 98% (active)
--
molecule: CN(C)c1ccc(Sc2ccc3nc(N)nc(N)c3c2)cc1
value: 34% (inactive)
--
molecule: CC(CC(C)(C)[N+](C)(C)C)[N+](C)(C)C (stereo not given)
value: 97% (active)
